Data provenance: the NIST ThermoML archive (doi:10.1016/j.tca.2007.08.008)

# condition notes: Liquid; Ebulliometric method (Recirculating still)
quantity name: Normal boiling temperature (°C)
Your answer should be a plain number; it is taken to be in °C.

ClC(Cl)C(Cl)Cl | 145.20
ClC(Cl)=C(Cl)Cl | 121.00
ClC=C(Cl)Cl | 87.10

Task: Indicate the recorded Normal boiling temperature value for this compound: C[S+](C)[O-] [dimethyl sulfoxide]
Result: 189.04

Task: Indicate the recorded Normal boiling temperature value for this compound: ClCCCl
Result: 83.80

Task: Indicate the recorded Normal boiling temperature value for this compound: CC(Cl)(Cl)Cl
Result: 74.20

###

# condition notes: 303.15 K; 101.33 kPa; Liquid; Pycnometric method
quantity name: mass density (kg/m3)
Your answer should be a plain number; it is taken to be in kg/m3.

A selection of reference data follows.
CC(Cl)(Cl)Cl | 1320.97
ClC=C(Cl)Cl | 1451.42

Task: Indicate the recorded mass density value for this compound: C[S+](C)[O-] [dimethyl sulfoxide]
Result: 1092.4

Task: Indicate the recorded mass density value for this compound: ClC(Cl)=C(Cl)Cl
Result: 1606.39

Task: Indicate the recorded mass density value for this compound: ClCCCl
Result: 1238.41

Task: Indicate the recorded mass density value for this compound: ClC(Cl)C(Cl)Cl
Result: 1578.59
